System: P388
protocol: Concentration required for 50% inhibition of incorporation of labeled uridine by P388 cells for the synthesis of RNA (in vitro)
Assay type: functional
settings: Mus musculus, read-out: ED50 (the source's name)
// values below are reported EC50
property_name: EC50 (nM)

INSERT INTO assay_data (compound, endpoint_unit, reported_result) VALUES
  ('Cc1c2oc3c(C)c(O)c(N)c(C(=O)N[C@@H]4C(=O)N[C@H](C(C)C)C(=O)N5CCC[C@H]5C(=O)N(C)CC(=O)N(C)[C@@H](C(C)C)C(=O)O[C@@H]4C)c3nc-2c(C(=O)N[C@@H]2C(=O)N[C@H](C(C)C)C(=O)N3CCC[C@H]3C(=O)N(C)CC(=O)N(C)[C@@H](C(C)C)C(=O)O[C@@H]2C)cc1=N', 'nM', 82),
  ('CCCCOc1cc(C(=O)N[C@@H]2C(=O)N[C@H](C(C)C)C(=O)N3CCC[C@H]3C(=O)N(C)CC(=O)N(C)[C@@H](C(C)C)C(=O)O[C@@H]2C)c2nc3c(C(=O)N[C@@H]4C(=O)N[C@H](C(C)C)C(=O)N5CCC[C@H]5C(=O)N(C)CC(=O)N(C)[C@@H](C(C)C)C(=O)O[C@@H]4C)c(N)c(=O)c(C)c-3oc2c1C', 'nM', 770),
  ('CCCNc1c(C(=O)N[C@@H]2C(=O)N[C@H](C(C)C)C(=O)N3CCC[C@H]3C(=O)N(C)CC(=O)N(C)[C@@H](C(C)C)C(=O)O[C@@H]2C)c2nc3c(C(=O)N[C@@H]4C(=O)N[C@H](C(C)C)C(=O)N5CCC[C@H]5C(=O)N(C)CC(=O)N(C)[C@@H](C(C)C)C(=O)O[C@@H]4C)ccc(C)c3oc-2c(C)c1=O', 'nM', 1820);

----------
Quick reference for MST among some molecules
Test system: P388
protocol: Median survival time of the P388 cells implanted CDF1 male mice in vivo
Assay type: functional, Mus musculus
property_name: MST (days)

INSERT INTO measurements (compound, reported_result) VALUES
  ('Cc1c2oc3c(C)c(OCc4ccc([N+](=O)[O-])cc4)cc(C(=O)N[C@@H]4C(=O)N[C@H](C(C)C)C(=O)N5CCC[C@H]5C(=O)N(C)CC(=O)N(C)[C@@H](C(C)C)C(=O)O[C@@H]4C)c3nc-2c(C(=O)N[C@@H]2C(=O)N[C@H](C(C)C)C(=O)N3CCC[C@H]3C(=O)N(C)CC(=O)N(C)[C@@H](C(C)C)C(=O)O[C@@H]2C)c(N)c1=O', 14),
  ('Cc1c2oc3c(C)ccc(C(=O)N[C@@H]4C(=O)N[C@H](C(C)C)C(=O)N5CCC[C@H]5C(=O)N(C)CC(=O)N(C)[C@@H](C(C)C)C(=O)O[C@@H]4C)c3nc-2c(C(=O)N[C@@H]2C(=O)N[C@H](C(C)C)C(=O)N3CCC[C@H]3C(=O)N(C)CC(=O)N(C)[C@@H](C(C)C)C(=O)O[C@@H]2C)c(NCCCN)c1=O', 30);

----------
Tested on: Calf thymus DNA
protocol: Apparent number of binding sites per base pairs in DNA
Format: nucleic-acid assay
settings: Bos taurus
Entries annotated with measured Bapp
property_name: Bapp

INSERT INTO assay_data (compound, property_name, reported_result) VALUES
  ('Cc1c2oc3c(C)c(O)c(N)c(C(=O)N[C@H]4C(=O)N[C@@H](C(C)C)C(=O)N5CCC[C@H]5C(=O)N(C)CC(=O)N(C)[C@H](C(C)C)C(=O)O[C@H]4C)c3nc-2c(C(=O)N[C@@H]2C(=O)N[C@H](C(C)C)C(=O)N3CCC[C@@H]3C(=O)N(C)CC(=O)N(C)[C@@H](C(C)C)C(=O)O[C@@H]2C)c/c1=N/Cc1cccc(Oc2ccccc2)c1', 'Bapp', 0.055),
  ('Cc1c2oc3c(C)c(O)c(N)c(C(=O)N[C@H]4C(=O)N[C@@H](C(C)C)C(=O)N5CCC[C@H]5C(=O)N(C)CC(=O)N(C)[C@H](C(C)C)C(=O)O[C@H]4C)c3nc-2c(C(=O)N[C@@H]2C(=O)N[C@H](C(C)C)C(=O)N3CCC[C@@H]3C(=O)N(C)CC(=O)N(C)[C@@H](C(C)C)C(=O)O[C@@H]2C)cc1=O', 'Bapp', 0.1),
  ('COc1cc(C(=O)N[C@@H]2C(=O)N[C@H](C(C)C)C(=O)N3CCC[C@@H]3C(=O)N(C)CC(=O)N(C)[C@@H](C(C)C)C(=O)O[C@@H]2C)c2nc3c(C(=O)N[C@H]4C(=O)N[C@@H](C(C)C)C(=O)N5CCC[C@H]5C(=O)N(C)CC(=O)N(C)[C@H](C(C)C)C(=O)O[C@H]4C)c(N)c(=O)c(C)c-3oc2c1C', 'Bapp', 0.11);

----------
Known Optimal dose of a selection of compounds
System: P388
protocol: Optimal dose for antitumor activity was measured in P388 cells of CDF1 male mice in vivo
Assay type: functional, Mus musculus
property_name: Optimal dose

INSERT INTO assay_data (compound, target_under_test, reported_result) VALUES
  ('Cc1c2oc3c(C)c(OCc4ccc(Cl)c(Cl)c4)cc(C(=O)N[C@@H]4C(=O)N[C@H](C(C)C)C(=O)N5CCC[C@H]5C(=O)N(C)CC(=O)N(C)[C@@H](C(C)C)C(=O)O[C@@H]4C)c3nc-2c(C(=O)N[C@@H]2C(=O)N[C@H](C(C)C)C(=O)N3CCC[C@H]3C(=O)N(C)CC(=O)N(C)[C@@H](C(C)C)C(=O)O[C@@H]2C)c(N)c1=O', 'P388', '0.5 mg/kg'),
  ('Cc1c2oc3c(C)ccc(C(=O)N[C@@H]4C(=O)N[C@H](C(C)C)C(=O)N5CCC[C@H]5C(=O)N(C)CC(=O)N(C)[C@@H](C(C)C)C(=O)O[C@@H]4C)c3nc-2c(C(=O)N[C@@H]2C(=O)N[C@H](C(C)C)C(=O)N3CCC[C@H]3C(=O)N(C)CC(=O)N(C)[C@@H](C(C)C)C(=O)O[C@@H]2C)c(NCCCCCCCCCCN)c1=O', 'P388', '1.8 mg/kg'),
  ('Cc1c2oc3c(C)ccc(C(=O)N[C@@H]4C(=O)N[C@H](C(C)C)C(=O)N5CCC[C@H]5C(=O)N(C)CC(=O)N(C)[C@@H](C(C)C)C(=O)O[C@@H]4C)c3nc-2c(C(=O)N[C@@H]2C(=O)N[C@H](C(C)C)C(=O)N3CCC[C@H]3C(=O)N(C)CC(=O)N(C)[C@@H](C(C)C)C(=O)O[C@@H]2C)c(NCCCN)c1=O', 'P388', '1.2 mg/kg');

----------
Reported Delta Tm values follow for various compounds
Species on record: Bos taurus
protocol: Thermal denaturation (deltaTm) of compound against calf thymus DNA was measured
Assay type: ADME
settings: cattle, in vitro
*1 amine or outer side, *2 acyl side, *3 side chain or, on linkers, in order; H or OH if unused. Where a SMILES comes first, the peptide text is derived from it. Bridges are numbered along the chain shown (N, C = ends). Roman numbers before positions name the chains, in order. [ ]: non-standard residue; d: D form. Actinocin(9to1) = Cc1c2oc3c(C)ccc(C(=O)[*:1])c3nc-2c(C(=O)[*:2])c(N)c1=O; NMeV = CN[C@H](C(=O)O)C(C)C; Sar = CNCC(=O)O
property_name: Delta Tm

INSERT INTO assay_data (compound, property_name, reported_result) VALUES
  ('Cc1c2oc3c(C)c(O)c(N)c(C(=O)N[C@@H]4C(=O)N[C@H](C(C)C)C(=O)N5CCC[C@H]5C(=O)N(C)CC(=O)N(C)[C@@H](C(C)C)C(=O)O[C@@H]4C)c3nc-2c(C(=O)N[C@@H]2C(=O)N[C@H](C(C)C)C(=O)N3CCC[C@H]3C(=O)N(C)CC(=O)N(C)[C@@H](C(C)C)C(=O)O[C@@H]2C)c/c1=N/Cc1ccco1', 'Delta Tm', 5.8),
  ('Cc1c2oc3c(C)c(O)c(N)c(C(=O)N[C@@H]4C(=O)N[C@H](C(C)C)C(=O)N5CCC[C@H]5C(=O)N(C)CC(=O)N(C)[C@@H](C(C)C)C(=O)O[C@@H]4C)c3nc-2c(C(=O)N[C@@H]2C(=O)N[C@H](C(C)C)C(=O)N3CCC[C@H]3C(=O)N(C)CC(=O)N(C)[C@@H](C(C)C)C(=O)O[C@@H]2C)c/c1=N/Cc1cccc(Oc2ccccc2)c1', 'Delta Tm', 5.3),
  ('Cc1c2oc3c(C)ccc(C(=O)N[C@@H]4C(=O)N[C@H](C(C)C)C(=O)N5CCC[C@H]5C(=O)N(C)CC(=O)N(C)[C@@H](C(C)C)C(=O)O[C@@H]4C)c3nc-2c(C(=O)N[C@@H]2C(=O)N[C@H](C(C)C)C(=O)N3CCC[C@H]3C(=O)N(C)CC(=O)N(C)[C@@H](C(C)C)C(=O)O[C@@H]2C)c(NCCCCCN)c1=O', 'Delta Tm', 1.1),
  ('Cc1c2oc3c(C)ccc(C(=O)N[C@@H]4C(=O)N[C@H](C(C)C)C(=O)N5CCC[C@H]5C(=O)N(C)CC(=O)N(C)[C@@H](C(C)C)C(=O)O[C@@H]4C)c3nc-2c(C(=O)N[C@@H]2C(=O)N[C@H](C(C)C)C(=O)N3CCC[C@H]3C(=O)N(C)CC(=O)N(C)[C@@H](C(C)C)C(=O)O[C@@H]2C)c(N)c1=O [DACTINOMYCIN] (I: T[dV]P[Sar][NMeV] / II: T[dV]P[Sar][NMeV]; ester I:1-I:C, II:1-II:C; linker I:N-II:N via Actinocin(9to1))', 'Delta Tm', 7.1);
